Task for the reader: assign each of the following compounds its reported SI (Selectivity index).
Target: human COX-2 (Homo sapiens)
Construct: purchased Cayman Chemicals 560131
Experiment: In vitro COX-2 inhibition assay (Cayman kit 560131, ELISA)
Format: biochemical
Details: IC50 for COX-1/IC50 for COX-2
Give bare numbers.

Here are 3 compounds together with their reported answers.
O=C1CSC(NN=Cc2ccc(-n3nc(-c4ccccc4)ccc3=O)cc2)=N1 [Compound 6a] | 10.35
COC(=O)C=C1SC(=NN=Cc2ccc(-n3nc(-c4ccccc4)ccc3=O)cc2)NC1=O [Compound 10] | 12.89
CCOC(=O)c1sc(N/N=C/c2ccc(-n3nc(-c4ccccc4)ccc3=O)cc2)nc1C [Compound 8] | 10.33

Now consider a different compound.
Q: Please report the recorded SI (Selectivity index) for CC1SC(NN=Cc2ccc(-n3nc(-c4ccccc4)ccc3=O)cc2)=NC1=O (stereo not shown) [Compound 6b] .
Result: 12.30

---

System: gastric ulcers in rats
Experiment: Gastric ulcerogenic activity
Details: 10 mg/kg orally, rats fasted 18 h, sacrificed after 4 h; Mean ± SE
Task for the reader: assign each of the following molecules its reported Score: Severity Lesions.
Give bare numbers.

Here are 4 molecules together with their reported answers.
COc1ccc(/C=C2\SC(N/N=C/c3ccc(-n4nc(-c5ccccc5)ccc4=O)cc3)=NC2=O)cc1 [Compound 16b] | 0.18
O=c1ccc(-c2ccccc2)nn1-c1ccc(C=NNc2nc(-c3ccccc3)cs2)cc1 [Compound 9a] | 0
O=c1ccc(-c2ccccc2)nn1-c1ccc(C=NNc2nc(-c3ccc(Br)cc3)cs2)cc1 [Compound 9b] | 0.26
O=C1CSC(=NN=Cc2ccc(-n3nc(-c4ccccc4)ccc3=O)cc2)N1c1ccccc1 [Compound 17] | 0.20

Now consider a different molecule.
Q: Please report the recorded Score: Severity Lesions for O=C1N=C(NN=Cc2ccc(-n3nc(-c4ccccc4)ccc3=O)cc2)SC1=C1C(=O)Nc2ccccc21 [Compound 12] .
Result: 0

---

Task for the reader: assign each of the following compounds its reported SI (Selectivity index).
Target: human COX-2 (Homo sapiens, UniProt P35354)
Construct: purchased Cayman Chemicals 560131
Sequence (P35354 18-604): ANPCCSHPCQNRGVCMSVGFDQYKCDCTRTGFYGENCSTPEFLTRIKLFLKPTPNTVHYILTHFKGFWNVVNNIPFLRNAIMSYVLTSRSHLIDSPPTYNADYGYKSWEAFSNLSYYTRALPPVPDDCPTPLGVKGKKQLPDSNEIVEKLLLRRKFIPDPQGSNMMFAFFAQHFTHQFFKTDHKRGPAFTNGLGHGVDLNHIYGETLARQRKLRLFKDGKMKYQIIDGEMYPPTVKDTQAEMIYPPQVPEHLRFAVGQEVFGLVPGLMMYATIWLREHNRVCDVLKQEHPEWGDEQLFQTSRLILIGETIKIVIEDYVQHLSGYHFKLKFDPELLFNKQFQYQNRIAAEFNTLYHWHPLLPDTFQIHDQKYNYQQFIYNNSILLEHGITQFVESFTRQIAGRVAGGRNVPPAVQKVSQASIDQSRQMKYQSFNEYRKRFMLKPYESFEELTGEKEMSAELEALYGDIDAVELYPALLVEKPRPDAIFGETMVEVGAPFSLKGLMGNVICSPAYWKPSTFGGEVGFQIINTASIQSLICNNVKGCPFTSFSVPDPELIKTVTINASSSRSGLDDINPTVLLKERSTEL
Test: In vitro COX-2 inhibition assay (Cayman kit 560131, ELISA)
Format: biochemical
Conditions: IC50 for COX-1/IC50 for COX-2
Answers are plain numbers.

NN=Cc1ccc(-n2nc(-c3ccccc3)ccc2=O)cc1 | 8.97
COC(=O)C=C1SC(=NN=Cc2ccc(-n3nc(-c4ccccc4)ccc3=O)cc2)N(c2ccccc2)C1=O | 11.01

I would be grateful if you could provide SI (Selectivity index) for each of the following entries.
1. O=C1N=C(N/N=C/c2ccc(-n3nc(-c4ccccc4)ccc3=O)cc2)S/C1=C\c1ccc(Cl)cc1 [Compound 16a]
2. CN(C)C=C1SC(NN=Cc2ccc(-n3nc(-c4ccccc4)ccc3=O)cc2)=NC1=O

Result:
1: 12.40; 2: 10.75

---

Task for the reader: assign each of the following compounds its reported melting point.

NN=Cc1ccc(-n2nc(-c3ccccc3)ccc2=O)cc1 | 235 to 236 °C
O=C1N=C(N/N=C/c2ccc(-n3nc(-c4ccccc4)ccc3=O)cc2)S/C1=C\c1ccc(Cl)cc1 [Compound 16a] | 297 to 298 °C
O=c1ccc(-c2ccccc2)nn1-c1ccc(C=NNc2nc(-c3ccccc3)cs2)cc1 | 280 to 281 °C
CC1SC(NN=Cc2ccc(-n3nc(-c4ccccc4)ccc3=O)cc2)=NC1=O (centres unmarked) | 285 to 286 °C
O=c1ccc(-c2ccccc2)nn1-c1ccc(C=NNc2nc(-c3ccc(Br)cc3)cs2)cc1 | 261 to 262 °C

I would be grateful if you could provide melting point for each of the following entries.
1. CCOC(=O)c1sc(N/N=C/c2ccc(-n3nc(-c4ccccc4)ccc3=O)cc2)nc1C
2. COc1ccc(/C=C2\SC(N/N=C/c3ccc(-n4nc(-c5ccccc5)ccc4=O)cc3)=NC2=O)cc1 [Compound 16b]
3. O=C1CSC(NN=Cc2ccc(-n3nc(-c4ccccc4)ccc3=O)cc2)=N1

Result:
245 to 246 °C
> 300 °C
250 to 252 °C

---

Target sequence: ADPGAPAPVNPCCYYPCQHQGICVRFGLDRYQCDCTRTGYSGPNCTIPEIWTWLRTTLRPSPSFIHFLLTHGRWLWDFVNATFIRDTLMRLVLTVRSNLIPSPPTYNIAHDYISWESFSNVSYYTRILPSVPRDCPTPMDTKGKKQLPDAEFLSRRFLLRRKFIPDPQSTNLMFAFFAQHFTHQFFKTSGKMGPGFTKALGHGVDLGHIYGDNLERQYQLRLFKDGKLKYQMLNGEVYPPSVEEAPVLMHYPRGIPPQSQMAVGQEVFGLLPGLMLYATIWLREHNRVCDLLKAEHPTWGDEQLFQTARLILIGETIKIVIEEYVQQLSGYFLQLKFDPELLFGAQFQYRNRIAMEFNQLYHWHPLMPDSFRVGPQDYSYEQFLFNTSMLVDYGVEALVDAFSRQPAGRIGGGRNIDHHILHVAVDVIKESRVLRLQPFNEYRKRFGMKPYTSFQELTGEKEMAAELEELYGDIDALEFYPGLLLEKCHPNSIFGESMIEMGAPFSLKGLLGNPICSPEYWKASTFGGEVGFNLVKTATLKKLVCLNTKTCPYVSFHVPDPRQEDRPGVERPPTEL
endpoint.name: pIC50
One number for each entry, as −log10 of the molar value.

Here are 3 molecules together with their reported answers.
O=C1N=C(N/N=C/c2ccc(-n3nc(-c4ccccc4)ccc3=O)cc2)S/C1=C\c1ccc(Cl)cc1 [Compound 16a] | 6.56
O=c1ccc(-c2ccccc2)nn1-c1ccc(C=NNc2nc(-c3ccc(Br)cc3)cs2)cc1 | 6.56
COc1ccc(/C=C2\SC(N/N=C/c3ccc(-n4nc(-c5ccccc5)ccc4=O)cc3)=NC2=O)cc1 [Compound 16b] | 6.50

I would be grateful if you could provide pIC50 for each of the following entries.
1. CCOC(=O)c1sc(N/N=C/c2ccc(-n3nc(-c4ccccc4)ccc3=O)cc2)nc1C
2. CN(C)C=C1SC(NN=Cc2ccc(-n3nc(-c4ccccc4)ccc3=O)cc2)=NC1=O
3. COC(=O)C=C1SC(=NN=Cc2ccc(-n3nc(-c4ccccc4)ccc3=O)cc2)NC1=O

Result:
1. 6.60
2. 6.57
3. 6.55

---

Tested on: gastric mucosa
Test: Lipid peroxidation studies (MDA content of gastric mucosa, TBA method)
Details: gastric mucosa after the ulcerogenic activity test, 10 mg/kg orally
endpoint.name: MDA Content in nmol (100 mg Tissue)

Here are 4 compounds together with their reported answers.
Cc1ccc(-c2cc(C(F)(F)F)nn2-c2ccc(S(N)(=O)=O)cc2)cc1 [Celecoxib, celecoxib, reference compound] | 6.11 ± 0.50 nmol (100 mg Tissue)
O=C1CSC(=NN=Cc2ccc(-n3nc(-c4ccccc4)ccc3=O)cc2)N1c1ccccc1 [Compound 17] | 4.11 ± 0.18 nmol (100 mg Tissue)
O=c1ccc(-c2ccccc2)nn1-c1ccc(C=NNc2nc(-c3ccccc3)cs2)cc1 [Compound 9a] | 3.05 ± 0.12 nmol (100 mg Tissue)
O=C1N=C(NN=Cc2ccc(-n3nc(-c4ccccc4)ccc3=O)cc2)SC1=C1C(=O)Nc2ccccc21 [Compound 12] | 2.95 ± 0.44 nmol (100 mg Tissue)

I would be grateful if you could provide MDA Content in nmol (100 mg Tissue) for each of the following entries.
1. COc1ccc(/C=C2\SC(N/N=C/c3ccc(-n4nc(-c5ccccc5)ccc4=O)cc3)=NC2=O)cc1 [Compound 16b]
2. O=c1ccc(-c2ccccc2)nn1-c1ccc(C=NNc2nc(-c3ccc(Br)cc3)cs2)cc1 [Compound 9b]
3. COc1ccc2c(c1)c(CC(=O)O)c(C)n2C(=O)c1ccc(Cl)cc1 [Indomethacin, indomethacin, reference compound]

Result:
1. 3.45 ± 0.28 nmol (100 mg Tissue)
2. 3.89 ± 0.50 nmol (100 mg Tissue)
3. 8.90 ± 0.18 nmol (100 mg Tissue)
